As shown below, each of these variants has a reported protein stability index value.
B1: CAMK2D (parent)
chain: LLKHPNIVRLHDSISEEGFHYLVF

Variants of: B1
testDescription: protein stability index of a GFP-peptide fusion (GPS, HEK-293T) (PSI 1-6); higher = more stable;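 also: lentivirally expressed fusions sorted by FACS into six bins by GFP to DsRed ratio, PSI derived from sequencing read proportions per bin multiplied by bin number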
studyConditions: c terminus: a fixed tail appended
parameterMeasured: protein stability index

INSERT INTO assay_data (residuesequence, parametermeasured, testvalue) VALUES
  ('LLKHPNIVRLHDSISEEGFMYLVF', 'protein stability index', 2.05),
  ('LLKHPRIVRLHDSISEEGFHYLVF', 'protein stability index', 2.54),
  ('LLKHPQIVRLHDSISEEGFHYLVF', 'protein stability index', 3.46),
  ('LLKHPNIVRLHDSISEEGFHYLVN', 'protein stability index', 1.51),
  ('LLKHNNIVRLHDSISEEGFHYLVF', 'protein stability index', 2.58),
  ('LLKHPNIVRLHDSISEEGFHELVF', 'protein stability index', 2.32),
  ('LLKHPNIVRLHDSISMEGFHYLVF', 'protein stability index', 2.71),
  ('LLKHPNIVRLHDNISEEGFHYLVF', 'protein stability index', 2.13),
  ('LLKHPNIVRLHDCISEEGFHYLVF', 'protein stability index', 2.82),
  ('LLKHPNIVRLHDSASEEGFHYLVF', 'protein stability index', 1.66),
  ('LLKHPNIVRLHDSISNEGFHYLVF', 'protein stability index', 2.87),
  ('LLKHPNIVRLHDSISEEGFHQLVF', 'protein stability index', 2.39),
  ('LLKHPNIVRLHDSIMEEGFHYLVF', 'protein stability index', 3.4),
  ('LLKHPDIVRLHDSISEEGFHYLVF', 'protein stability index', 1.76),
  ('ELKHPNIVRLHDSISEEGFHYLVF', 'protein stability index', 2.23),
  ('TLKHPNIVRLHDSISEEGFHYLVF', 'protein stability index', 1.62),
  ('LLKHPNIVRLHDSISEEGFHYLLF', 'protein stability index', 2),
  ('LLKHPNIVRLHDSISEEGFHYLHF', 'protein stability index', 2.57),
  ('LLKHPNIVRLHDSISEEGFHYLMF', 'protein stability index', 2.91),
  ('LLKHPEIVRLHDSISEEGFHYLVF', 'protein stability index', 3.7),
  ('LLHHPNIVRLHDSISEEGFHYLVF', 'protein stability index', 1.44),
  ('LLIHPNIVRLHDSISEEGFHYLVF', 'protein stability index', 2.71);
